experiment: Cytotoxicity against mouse macrophage cells assessed as cell viability at 10 ug/100 ul after 24 hrs by MTT assay; type: cell-based; details: read-out: Activity
experimentalReadout: viability at 24 h, 10 ug/100 ul (%)
One number for each entry, in %.

CC(c1cc(F)ccc1Oc1nc2ccc(-n3cc(-c4ccccc4)nn3)cc2cc1Cc1ccccc1)n1ccnc1 (stereo not drawn) ... 88
CC(O)c1cc(F)ccc1Oc1nc2ccc(NC(=O)Nc3cccc([N+](=O)[O-])c3)cc2cc1Cc1ccccc1 (stereo not drawn) ... 87

Let's switch to this compound now.
Q: # get_value(readout='viability at 24 h, 10 ug/100 ul', item= COc1cccc(NC(=O)Nc2ccc3nc(Oc4ccc(F)cc4C(C)O)c(Cc4ccccc4)cc3c2)c1 (stereo not drawn) )
Ans: 79
